assay system: AKT1-E17K (Homo sapiens, UniProt P31749, E17K)
Sequence (P31749 whole entry E17K): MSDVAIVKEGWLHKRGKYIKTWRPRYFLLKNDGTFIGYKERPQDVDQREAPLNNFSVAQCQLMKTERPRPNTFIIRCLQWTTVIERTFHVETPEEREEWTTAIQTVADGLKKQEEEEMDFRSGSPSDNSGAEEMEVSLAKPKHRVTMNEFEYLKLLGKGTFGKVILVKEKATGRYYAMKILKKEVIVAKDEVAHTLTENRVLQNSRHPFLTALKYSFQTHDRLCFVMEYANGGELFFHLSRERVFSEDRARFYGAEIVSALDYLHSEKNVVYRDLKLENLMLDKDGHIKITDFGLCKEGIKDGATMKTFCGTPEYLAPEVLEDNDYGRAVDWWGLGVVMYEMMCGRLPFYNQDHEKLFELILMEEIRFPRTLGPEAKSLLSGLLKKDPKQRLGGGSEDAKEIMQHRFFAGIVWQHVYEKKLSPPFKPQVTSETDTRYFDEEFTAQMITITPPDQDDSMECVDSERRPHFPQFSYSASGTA
assay procedure: NanoBRET Target Engagement (TE) Assay
pIC50: −log10 of the molar value.
reported metric: pIC50

The value of pIC50 measured for the compound Nc1ncccc1-c1nc2ccc(C3=CCCCC3)nc2n1-c1ccc(CN2CCN(C(=O)c3ccc(O)c(C=O)c3)CC2)cc1 [Example 150] turned out to be 6.22 to 7.22

So, Nc1ncccc1-c1nc2ccc(-c3ccccc3)nc2n1-c1ccc(COc2ccc(C=O)c(O)c2)cc1 [Example 138] ? Its pIC50 was 6.22 to 7.22

// field: pIC50; key: Nc1ncccc1-c1nc2ccc(-c3ccccc3)nc2n1-c1ccc(CN2C3CCC2CN(C(=O)c2ccc(C=O)c(O)c2)C3)cc1 [Example 113] ; value = 6.22 to 7.22

Lookup result for Nc1ncccc1-c1nc2ccc(-c3ccccc3)nc2n1-c1ccc(CN2C[C@@H]3C[C@H]2CN3C(=O)c2ccc(C=O)c(O)c2)cc1 [Example 122] ; measured pIC50: 7.22 to 7.82

====

assay system: AKT1-E17K (Homo sapiens, UniProt P31749, E17K)
assay procedure: NanoBRET Target Engagement (TE) Assay
reported metric: IC50

Would you please look over these solved cases?
[[record]]
molecule = "Nc1ncccc1-c1nc2ccc(-c3ccccc3)nc2n1-c1ccc(CN2CCC3(CC2)CCN(c2ccc(C=O)c(O)c2)C3)cc1"
assay_system = "AKT1-E17K (Homo sapiens, UniProt P31749, E17K)"
reported_metric = "IC50"
test_result = "60 to 600 nM"

[[record]]
molecule = "Nc1ncccc1-c1nc2ccc(-c3ccccc3)nc2n1-c1ccc(CN2CC3CCC2CN3C(=O)c2ccc(O)c(C=O)c2)cc1 (stereo not drawn)"
assay_system = "AKT1-E17K (Homo sapiens, UniProt P31749, E17K)"
reported_metric = "IC50"
test_result = "60 to 600 nM"


Nc1ncccc1-c1nc2ccc(-c3ccccc3)nc2n1-c1ccc(CN2CCC3(C2)CN(c2ccc(C=O)c(O)c2)C3)cc1 has a reported IC50 of 15 to 60 nM

Reported IC50 of Nc1ncccc1-c1nc2ccc(-c3ccccc3)nc2n1-c1ccc(CN2CC3CCC(C2)N3c2ccc(C=O)c(O)c2)cc1 : > 600 nM

IC50 for Nc1ncccc1-c1nc2ccc(-c3ccccc3)nc2n1-c1ccc(CN2CC[C@@]3(CCN(C(=O)c4ccc(O)c(C=O)c4)C3)C2)cc1 is 15 to 60 nM

// IC50 value for Nc1ncccc1-c1nc2ccc(-c3cccc(=O)[nH]3)nc2n1-c1ccc(CN2CCN(C(=O)c3ccc(C=O)c(O)c3)CC2)cc1 : > 600 nM

====

assay system: AKT1-E17K (Homo sapiens, UniProt P31749, E17K)
assay procedure: NanoBRET Target Engagement (TE) Assay
reported metric: IC50

Short answer for Nc1ncccc1-c1nc2ccc(C3=CCOCC3)nc2n1-c1ccc(CN2CCN(C(=O)c3ccc(C=O)c(O)c3)CC2)cc1 [Example 30] : IC50 was 60 to 600 nM

Item: Nc1ncccc1-c1nc2ccc(-c3ccccc3)nc2n1-c1ccc(CN2CCCCC(NC(=O)c3ccc(O)c(C=O)c3)C2)cc1 (stereo not drawn) [Example 117] | IC50: > 600 nM

Documented IC50 of Nc1ncccc1-c1nc2ccc(-c3ccccc3)nc2n1-c1ccc(CN2CCC3(C2)CN(C(=O)c2ccc(C=O)c(O)c2)C3)cc1 [Example 153] : 60 to 600 nM
